tested on: FB; test: Euclidean distance of Cell Painting phenotypic profile (signed KS, 77 features) to DMSO centroid (dimensionless distance); 5 or 10 uM (library dependent); higher = stronger phenotypic change vs DMSO (phenoactivity); conditions: 48 h
Counter-ions that a name gives are not always drawn.
Collected Euclidean distance values appear next to each entry.
endpoint: Euclidean distance

compound="CN(C(=O)c1c(O)c2ccccc2n(C)c1=O)c1ccccc1 [Roquinimex]" system_under_test=FB observed=1.32
compound="CC#CC(=O)N1CC[C@@H](n2c(=O)n(-c3ccc(Oc4ccccc4)cc3)c3c(N)ncnc32)C1 [ONO-4059 (GS-4059) hydrochloride]" system_under_test=FB observed=1.99
compound="CC1(C)S[C@@H]2[C@H](NC(=O)Cc3ccccc3)C(=O)N2[C@H]1C(=O)O [Benzylpenicillin potassium]" system_under_test=FB observed=0.93
compound="CC(C)Oc1ccc2c(=O)c(-c3ccccc3)coc2c1 [Ipriflavone (Osteofix)]" system_under_test=FB observed=1.17
compound="O=C(Nc1ccccc1)c1ccccc1O [Salicylanilide]" system_under_test=FB observed=0.532

----------
tested on: 786-O; assay: Euclidean distance of Cell Painting phenotypic profile (signed KS, 77 features) to DMSO centroid (dimensionless distance); 5 or 10 uM (library dependent); higher = stronger phenotypic change vs DMSO (phenoactivity); settings: 48 h
Collected Euclidean distance values appear next to each entry.
endpoint: Euclidean distance

compound=C1N2CN3CN1CN(C2)C3 system_under_test=786-O observed=1.23
compound="Nc1ccc(C(=O)O)c(O)c1 [Sodium 4-Aminosalicylate]" system_under_test=786-O observed=1.34
compound=Nc1nc(F)nc2c1ncn2[C@@H]1O[C@H](CO)[C@@H](O)[C@@H]1O system_under_test=786-O observed=1.67
compound=COc1cc(-c2cc(-c3cccc(O)c3)cnc2N)cc(OC)c1OC system_under_test=786-O observed=2.06
compound=Cc1cc(F)c(Nc2ncnc3cc(OCc4ccccc4)ccc23)cc1O system_under_test=786-O observed=1.83

----------
tested on: A549; assay: Euclidean distance of Cell Painting phenotypic profile (signed KS, 77 features) to DMSO centroid (dimensionless distance); 5 or 10 uM (library dependent); higher = stronger phenotypic change vs DMSO (phenoactivity); conditions: 48 h
Structures can show the parent of a compound that is named as a salt.
# if value of Euclidean distance reaches 0.9, tag yes; if it stays below, tag no

molecule=CNC(=O)c1ccc(-c2cnc3ncc(Cc4ccc5ncccc5c4)n3n2)cc1F assigned_category=no
molecule="CCCCc1nc(C)c(CC(=S)N(C)C)c(=O)n1Cc1ccc(-c2ccccc2-c2nnn[nH]2)cc1 [Fimasartan]" assigned_category=no
molecule="Nc1nc(N)nc(-c2cc(Cl)ccc2Cl)n1 [Irsogladine]" assigned_category=yes
molecule="CCCOc1ccc(C(=O)OCCN(CC)CC)cc1N [Proparacaine HCl]" assigned_category=yes
molecule=C=CC(=O)Nc1cccc(Oc2nc(Nc3ccc(N4CCN(C)CC4)cc3)nc3ccsc23)c1 assigned_category=yes
molecule="COC(=O)/C=C/C(=O)OCCN1C(=O)CCC1=O [Diroximel Fumarete]" assigned_category=no
molecule="CC[C@H]1OC(=O)[C@H](C)[C@@H](O[C@H]2C[C@@](C)(OC)[C@@H](O)[C@H](C)O2)[C@H](C)[C@@H](O[C@@H]2O[C@H](C)C[C@H](N(C)C)[C@H]2O)[C@](C)(OC)C[C@@H](C)C(=O)[C@H](C)[C@@H](O)[C@]1(C)O [Clarithromycin]" assigned_category=no
molecule="CC(C)Oc1ccc2c(=O)c(-c3ccccc3)coc2c1 [Ipriflavone (Osteofix)]" assigned_category=yes

----------
tested on: HEPG2; assay: Euclidean distance of Cell Painting phenotypic profile (signed KS, 77 features) to DMSO centroid (dimensionless distance); 5 or 10 uM (library dependent); higher = stronger phenotypic change vs DMSO (phenoactivity); conditions: 48 h
Structures can show the parent of a compound that is named as a salt.
Group membership follows Euclidean distance per the scheme bottom = under 0.8, middle = from 0.8 up to 2, top = 2 and over

compound=N#C[C@@H]1CCCN1C(=O)CNC12CC3CC(CC(O)(C3)C1)C2 assigned_category=middle
compound="CC(C)(C)NCC(O)COc1cccc2c1CC(O)C(O)C2 (stereo not drawn)" assigned_category=middle
compound="c1ccc(CN(CC2=NCCN2)c2ccccc2)cc1 [Antazoline HCl]" assigned_category=bottom
compound="Cn1c(=O)cc(N2CCC[C@@H](N)C2)n(Cc2cc(F)ccc2C#N)c1=O [Trelagliptin succinate]" assigned_category=bottom
compound="CN[C@@H]1[C@@H](O)[C@@H](O[C@@H]2[C@@H](O)[C@H](O[C@H]3OC(CN)=CC[C@H]3N)[C@@H](N)C[C@H]2N)OC[C@]1(C)O [Sisomicin sulfate]" assigned_category=bottom
compound=Nc1ccc2ncnc(NCCc3ccc(Oc4ccccc4)cc3)c2c1 assigned_category=top
compound=CCCCOc1ccc(C(=O)Nc2ccc(F)cc2F)cc1 assigned_category=middle
compound="CC(NCCC(c1ccccc1)c1ccccc1)c1ccccc1 (stereo not drawn) [Fendiline hydrochloride]" assigned_category=top
compound=CCO[C@@H]1OC(=O)C[C@@H]1NC(=O)[C@@H]1CCCN1C(=O)[C@@H](NC(=O)c1ccc(N)c(Cl)c1)C(C)(C)C assigned_category=middle
compound=N#C/C(=C1/SC[C@@H](c2ccc(Cl)cc2Cl)S1)n1ccnc1 assigned_category=bottom
compound=COC(=O)C1=CO[C@@H](O)[C@@H]2C(CO)=CC[C@H]12 assigned_category=middle
compound="CC(CNC(=O)c1cccnc1)NC(=O)c1cccnc1 (stereo not drawn)" assigned_category=top
compound="OC(CNCC(O)C1CCc2cc(F)ccc2O1)C1CCc2cc(F)ccc2O1 (stereo not drawn)" assigned_category=top
compound=CNC(=C[N+](=O)[O-])NCCSCc1ccc(CN(C)C)o1 assigned_category=middle
compound="Cc1cc(C(=O)Nc2nc3cccc(Cl)c3n2[C@@H]2CCCCN(C(=O)/C=C/CN(C)C)C2)ccn1 [Nazartinib (EGF816. NVS-816)]" assigned_category=top
compound=Cn1cc(CNCC2CCN(c3ncc(C(=O)NO)cn3)CC2)c2ccccc21 assigned_category=top
compound=COc1ccc2cccc(CCNC(C)=O)c2c1 assigned_category=bottom

----------
test system: DU145; test: Euclidean distance of Cell Painting phenotypic profile (signed KS, 77 features) to DMSO centroid (dimensionless distance); 5 or 10 uM (library dependent); higher = stronger phenotypic change vs DMSO (phenoactivity); conditions: 48 h
Structures can show the parent of a compound that is named as a salt.
endpoint: Euclidean distance

compound=COc1ccc(NC(=O)c2ccc(C(=N)N(C)C)cc2)c(C(=O)Nc2ccc(Cl)cn2)c1 observed=0.647
compound=C[C@@]12C[C@@]3(O)O[C@@H](O1)[C@]1(COC(=O)c4ccccc4)[C@H]3C[C@@]12O[C@@H]1O[C@H](CO)[C@@H](O)[C@H](O)[C@H]1O observed=0.983
compound=CC1(C)CCC(C)(C)c2cc(NC(=O)c3ccc(C(=O)O)cc3)ccc21 observed=1.77
compound="CCOC(=O)[C@H](CCc1ccccc1)N[C@@H](C)C(=O)N1CCC[C@H]1C(=O)O [Enalapril Maleate]" observed=0.694
compound=COC(=O)C1=CO[C@@H](O)[C@@H]2C(CO)=CC[C@H]12 observed=0.882
compound=CN(C[C@@H]1COCCO1)S(=O)(=O)Nc1ccc2ccc3ncc(-c4cnn(C)c4)cc3c(=O)c2c1 observed=1.01
compound=CC(C)(C)c1cc(/C=C(\C#N)C(N)=S)cc(C(C)(C)C)c1O observed=0.926
compound="CC(C)NCC(O)COc1ccc(CC(N)=O)cc1 (configuration not stated)" observed=0.819
compound=COc1cccc(C=NCCN=Cc2cccc(OC)c2[O-])c1[O-].[Cl-].[Mn+3] observed=0.577
compound=O=C(O)COc1nn(Cc2ccccc2)c2ccccc12 observed=1.13
compound=COc1ccc2c(O[C@@H]3C[C@H]4C(=O)N[C@]5(C(=O)NS(=O)(=O)C6CC6)C[C@H]5/C=C\CCCCN(C)C(=O)[C@@H]4C3)cc(-c3nc(C(C)C)cs3)nc2c1C observed=1.29
compound=O=C1NC(=O)/C(=C/c2ccc3c(c2)OC(F)(F)O3)S1 observed=1.51
compound=COc1ccc(C(=O)CC(=O)c2ccc(C(C)(C)C)cc2)cc1 observed=0.714
compound=CNC(=O)[C@H](Cc1ccccc1)NC(=O)[C@H](CC(C)C)[C@H](CSc1cccs1)C(=O)NO observed=1.25
compound=FC(F)(F)c1ccc(/C=C/c2nc(COc3ccc(CCCCn4ccnn4)cc3)co2)cc1 observed=1.4
compound=CNCC(=O)O observed=1.05
compound=COc1ccc(C2C(=O)c3ccccc3C2=O)cc1 observed=1.76

----------
tested on: A549; assay: Euclidean distance of Cell Painting phenotypic profile (signed KS, 77 features) to DMSO centroid (dimensionless distance); 5 or 10 uM (library dependent); higher = stronger phenotypic change vs DMSO (phenoactivity); settings: 48 h
Counter-ions that a name gives are not always drawn.
endpoint: Euclidean distance

compound="CCOc1ccc2nc(S(N)(=O)=O)sc2c1 [Ethoxzolamide]" system_under_test=A549 observed=0.718
compound=CC(C)C[C@H](NC(=O)CNC(=O)c1cc(Cl)ccc1Cl)B1OC(=O)C(CC(=O)O)(CC(=O)O)O1 system_under_test=A549 observed=3.73
compound=CO[C@H]1C[C@H](O[C@@H]2/C(C)=C/C[C@@H]3C[C@@H](C[C@]4(CC[C@H](C)[C@@H](C5CCCCC5)O4)O3)OC(=O)[C@@H]3C=C(C)/C(=N/O)[C@H]4OC/C(=C\C=C\[C@@H]2C)[C@]43O)O[C@@H](C)[C@@H]1O system_under_test=A549 observed=3.16
compound="O=C(O)CCCC[C@@H]1CCSS1 (racemic)" system_under_test=A549 observed=0.518
compound=CCOC(=O)c1ncn2c1CN(C)C(=O)c1cc(F)ccc1-2 system_under_test=A549 observed=0.73
compound="CC[C@H]1OC(=O)[C@H](C)[C@@H](O[C@H]2C[C@@](C)(OC)[C@@H](O)[C@H](C)O2)[C@H](C)[C@@H](O[C@@H]2O[C@H](C)C[C@H](N(C)C)[C@H]2O)[C@](C)(O)C[C@@H](C)C(=O)[C@H](C)[C@@H](O)[C@]1(C)O [Erythromycin thiocyanate]" system_under_test=A549 observed=1.44
compound=Cc1c(N(C)C)c(=O)n(-c2ccccc2)n1C system_under_test=A549 observed=0.92
compound="CCN(CC)CC(=O)Oc1ccc(NC(C)=O)cc1 [Propacetamol hydrochloride]" system_under_test=A549 observed=0.77
compound=CN1CC(=O)N2[C@H](c3ccc4c(c3)OCO4)c3[nH]c4ccccc4c3C[C@@H]2C1=O system_under_test=A549 observed=0.906
compound=O=C1c2cccc(O)c2C(=O)c2c(O)cc(CO)cc21 system_under_test=A549 observed=1.14
compound="Cc1[nH]cnc1CN1CCc2c(c3ccccc3n2C)C1=O [Alosetron Hydrochloride]" system_under_test=A549 observed=0.744
compound=Oc1cccc(O)c1 system_under_test=A549 observed=1.19
compound="C[N+]1(C)CCC(=C(c2ccccc2)c2ccccc2)CC1 [Diphemanil Methylsulfate]" system_under_test=A549 observed=0.915
compound=CN1C(N)=N[C@](C)(c2cc(NC(=O)c3ccc(F)cn3)ccc2F)CS1(=O)=O system_under_test=A549 observed=0.58
compound="CN(Cc1ccc(C(C)(C)C)cc1)Cc1cccc2ccccc12 [Butenafine HCl]" system_under_test=A549 observed=0.57
compound="NC(=O)[C@@H]1CSSCCC(=O)N[C@@H](CCCCN=C(N)N)C(=O)NCC(=O)N[C@@H](CC(=O)O)C(=O)N[C@@H](Cc2c[nH]c3ccccc23)C(=O)N2CCC[C@H]2C(=O)N1 [Eptifibatide Acetate]" system_under_test=A549 observed=1.02
compound="CCN1CC(CCN2CCOCC2)C(c2ccccc2)(c2ccccc2)C1=O (stereo not drawn) [Doxapram HCl]" system_under_test=A549 observed=0.512
compound=CS(=O)(=O)Nc1cc2occ(NC=O)c(=O)c2cc1Oc1ccccc1 system_under_test=A549 observed=0.587
compound=COC(=O)Nc1nc2cc(C(=O)c3cccs3)ccc2[nH]1 system_under_test=A549 observed=2.51
compound=CS(=O)(=O)c1ccc([C@@H](O)[C@@H](CF)NC(=O)C(Cl)Cl)cc1 system_under_test=A549 observed=0.738
compound=CC[C@@H](Nc1c(Nc2cccc(C(=O)N(C)C)c2O)c(=O)c1=O)c1ccc(C)o1 system_under_test=A549 observed=0.692
compound="CC(C(=O)O)c1ccc2c(c1)CC(=O)c1ccccc1S2 (stereo not drawn)" system_under_test=A549 observed=1.02
compound=O=C1CN(/N=C/c2ccc([N+](=O)[O-])o2)C(=O)N1 system_under_test=A549 observed=0.86
compound=CNCC(=O)O system_under_test=A549 observed=0.92
compound=CCCOc1ccc2[nH]c(NC(=O)OC)nc2c1 system_under_test=A549 observed=2.7
compound=C=CC[C@@H]1/C=C(\C)C[C@H](C)C[C@H](OC)[C@H]2O[C@@](O)(C(=O)C(=O)N3CCCC[C@H]3C(=O)O[C@H](/C(C)=C/[C@@H]3CC[C@@H](O)[C@H](OC)C3)[C@H](C)[C@@H](O)CC1=O)[C@H](C)C[C@@H]2OC system_under_test=A549 observed=1.47
compound=Cc1cccc(Nc2ccccc2C(=O)O)c1C system_under_test=A549 observed=0.521
compound=O=C(NC[C@H]1CN(c2ccc(N3CCOCC3=O)cc2)C(=O)O1)c1ccc(Cl)s1 system_under_test=A549 observed=1.15
compound=COc1cc2c(Nc3ccc(NC(=O)c4ccccc4)cc3)ncnc2cc1OCCCN1CCOCC1 system_under_test=A549 observed=3.81
compound=CC1(C)C[C@@H]1C(=O)N/C(=C\CCCCSC[C@H](N)C(=O)O)C(=O)O system_under_test=A549 observed=0.574
compound=COc1ccc(C(C)=O)c(O)c1 system_under_test=A549 observed=0.755
compound=Cc1c(CN2CCN(C(=O)[C@H](C)O)CC2)sc2c(N3CCOCC3)nc(-c3cnc(N)nc3)nc12 system_under_test=A549 observed=2.91
compound="CC(NCCc1ccc(O)cc1)C(O)c1ccc(O)cc1 (stereo not drawn) [Ritodrine HCl]" system_under_test=A549 observed=0.752
